Exercise: state measured SH2 binding enrichment for each of the sequences provided.
Assay Target: Grb2 SH2 (UniProt P62993)
Sequence (P62993 whole entry, looked up): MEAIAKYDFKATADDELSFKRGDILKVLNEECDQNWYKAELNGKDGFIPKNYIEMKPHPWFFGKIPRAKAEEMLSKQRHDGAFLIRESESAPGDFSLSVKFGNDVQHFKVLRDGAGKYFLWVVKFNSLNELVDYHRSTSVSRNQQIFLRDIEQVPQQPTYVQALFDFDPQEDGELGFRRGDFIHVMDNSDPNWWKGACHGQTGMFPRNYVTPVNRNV
Test Description: SH2 binding enrichment of the phosphorylated peptide, bacterial display (enrichment ratio); higher = better substrate or ligand; peptides without Tyr show the background
Answers are plain numbers.

Check out these entries, answers already filled in.
PQEVTYAQLDH [KIR3DL2_Y398]: 0.873
LVSCAYQMARG [FGFR1_Y605_V607M]: 0.731

Quote SH2 binding enrichment reported for SSWPDYVRPLP [HSPB1_Y54_G53D] please.
0.974

###

Tested on: AncSZ
Test Description: phosphorylation enrichment, bacterial display (enrichment ratio); higher = better substrate or ligand; peptides without Tyr show the background
Assign MET whenever phosphorylation enrichment does not fall below 1; assign NOT MET whenever it does.

HNVPIYEGFAL [ACTA1_Y168_YF]: MET

Reported phosphorylation enrichment reaches at least 1 for VTPVMYTYDEY [COL10A1_Y623_G618V] ?
MET

Reported phosphorylation enrichment reaches at least 1 for PLDGEYVTLQI [TP53_Y327_F328V] ?
MET

Reported phosphorylation enrichment reaches at least 1 for ADEEEYEIIAA [FEStide_E_2014] ?
MET

Reported phosphorylation enrichment reaches at least 1 for ILGRYYETSSI [PAX2_Y73_G76S] ?
NOT MET

Reported phosphorylation enrichment reaches at least 1 for KLPYLYDDPFS [GPX2_Y127_P126L] ?
MET

Reported phosphorylation enrichment reaches at least 1 for AGQEEYSAMRD [HRAS_Y64] ?
NOT MET

Reported phosphorylation enrichment reaches at least 1 for RLLRGYNQSAY [HLA-C_Y137_D138N] ?
NOT MET

###

Assay Target: Jak2 (UniProt O60674)
Sequence (O60674 whole entry, looked up): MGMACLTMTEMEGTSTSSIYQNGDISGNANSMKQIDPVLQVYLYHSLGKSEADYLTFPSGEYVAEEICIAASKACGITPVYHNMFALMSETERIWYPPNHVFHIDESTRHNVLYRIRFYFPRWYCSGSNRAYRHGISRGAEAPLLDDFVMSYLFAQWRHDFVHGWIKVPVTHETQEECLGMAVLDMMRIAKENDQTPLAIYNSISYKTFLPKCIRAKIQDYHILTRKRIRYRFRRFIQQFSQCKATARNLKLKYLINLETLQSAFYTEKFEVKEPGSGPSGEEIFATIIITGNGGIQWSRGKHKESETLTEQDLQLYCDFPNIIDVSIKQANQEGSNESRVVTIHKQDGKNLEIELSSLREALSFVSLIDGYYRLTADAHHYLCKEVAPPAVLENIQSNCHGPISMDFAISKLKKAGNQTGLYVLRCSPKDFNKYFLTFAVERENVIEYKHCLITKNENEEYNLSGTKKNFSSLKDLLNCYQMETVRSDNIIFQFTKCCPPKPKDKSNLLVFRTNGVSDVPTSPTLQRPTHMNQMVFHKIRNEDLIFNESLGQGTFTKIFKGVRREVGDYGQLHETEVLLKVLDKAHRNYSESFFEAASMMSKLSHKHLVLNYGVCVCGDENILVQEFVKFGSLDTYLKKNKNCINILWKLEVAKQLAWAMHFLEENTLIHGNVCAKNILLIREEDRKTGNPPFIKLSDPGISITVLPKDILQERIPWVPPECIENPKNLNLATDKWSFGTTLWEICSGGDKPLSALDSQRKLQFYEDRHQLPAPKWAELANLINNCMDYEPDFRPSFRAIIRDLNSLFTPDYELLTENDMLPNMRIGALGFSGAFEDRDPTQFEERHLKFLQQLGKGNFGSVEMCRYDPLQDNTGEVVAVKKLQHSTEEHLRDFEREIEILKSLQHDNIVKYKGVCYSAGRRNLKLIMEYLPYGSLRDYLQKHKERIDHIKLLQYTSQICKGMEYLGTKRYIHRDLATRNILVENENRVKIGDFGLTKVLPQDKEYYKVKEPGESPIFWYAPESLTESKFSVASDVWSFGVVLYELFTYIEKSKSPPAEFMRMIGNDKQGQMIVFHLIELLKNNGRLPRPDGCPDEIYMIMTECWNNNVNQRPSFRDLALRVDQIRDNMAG
Test Description: phosphorylation enrichment, bacterial display (enrichment ratio); higher = better substrate or ligand; peptides without Tyr show the background
Endpoint Label: phosphorylation enrichment
One number for each entry.

Check out these entries, answers already filled in.
HNVPIYEGFAL [ACTA1_Y168_YF]: 0.894
SDVDLYQVRIA [PSMD9_Y70_T74I]: 1.04
CTTIFYNFMCN [TP53_Y234_H233Y_YF]: 1.28
MFNPYYGLFEY [NEDD4L_Y680]: 7.13

Please state phosphorylation enrichment for every sequence in the list that follows.
1. GISDEYHVIWH [GCDH_Y398_R402W]
2. WLFFRYLPIGC [ATP2A2_Y836_A838P]
3. FQKNIYSEEPR [LMNA_Y211_L215P]
4. ETGEPCRLSPE [EIF4G1_Y311_Y311C]

1: 1.34; 2: 1.14; 3: 0.717; 4: 1.15

Please state phosphorylation enrichment for every sequence in the list that follows.
1. RSHLPYDVTPE [IQGAP3_Y1098]
2. RMLREYQELMS [KRT74_Y425]
3. EQWRAYLEGTC [HLA-C_Y183_L180W]
4. GCRSKHVGLWG [KCNQ1_Y184_Y184H]

[2.28, 0.611, 1.17, 0.409]

Please state phosphorylation enrichment for every sequence in the list that follows.
1. DDKEFYSVHNK [MET_Y1235_Y1230D_YF]
2. FAELVYTSFWH [ASS1_Y322_G324S]

0.854
2.11

###

Exercise: state measured phosphorylation enrichment for each of the sequences provided.
Test system: AncSZ
Test Description: phosphorylation enrichment, bacterial display (enrichment ratio); higher = better substrate or ligand; peptides without Tyr show the background
Numbers only.

Check out these entries, answers already filled in.
DSILVYQRKEQ [USH2A_Y1909_G1911R]: 0.636
SRVTQYERNFE [SNX1_Y463_D466N]: 0.763
SVTCTYSPTLN [TP53_Y126_A129T]: 1.48
LLASGYDSPIN [ABLIM1_Y638_R637G]: 1.33

Please state phosphorylation enrichment for every sequence in the list that follows.
1. KDAGDYKCKAK [LRIT3_Y326]
2. AVLALYNSTRD [TGFB1_Y81]
3. REDVFYTSKLW [AKR1C2_Y81_I79V]
4. EVTLTYATGIK [NFKB1_Y485_T489I]

1: 0.542; 2: 0.755; 3: 1.52; 4: 0.896

Please state phosphorylation enrichment for every sequence in the list that follows.
1. AQQPIYIRVEG [NLRP7_Y318_V319I]
2. SQQTFCRVSNM [ABCD1_Y181_Y181C_YF]
3. LIQRNYKLTAQ [ALPK2_Y1975_A1978T]

1: 1.12; 2: 0.636; 3: 0.86

Please state phosphorylation enrichment for every sequence in the list that follows.
1. QMVRMYASSYM [AVPR2_Y124_G122R]
2. SSVKPYRVFCD [FGB_Y266_YF]
3. LFNQDYPIHSV [GATM_Y227_YF]
4. LIGRGYDDPEV [HSPA9_Y128_R127G]
5. SRDDDYETIAM [NPY1R_Y347]
6. YGMSSYITRED [FNDC3B_Y180_T179S]
7. FFSSEYHFVGG [CTSC_Y345_YF]

[1.31, 0.701, 2.31, 1.54, 1.75, 0.819, 2.52]

Please state phosphorylation enrichment for every sequence in the list that follows.
1. KKARAYRPGIE [FLNA_Y287_G288R]
2. GVRLFYRVMES [RB1_Y454_YF]
3. TLRKTYGEMAD [ALB_Y108_E106K]

0.499
1.29
0.535

Please state phosphorylation enrichment for every sequence in the list that follows.
1. YHLLPYTVRAM [PARS2_Y93]
2. ISGGGYRACPA [FGB_Y71_R74C]
3. ADGLEYPRTGL [MMUT_Y287_S288P]
4. FIPFRYPKEFQ [IDS_Y234_H229Y_YF]
5. LADKPYTFEDY [FXN_Y118]

1.28
0.915
0.722
0.705
2.03

Please state phosphorylation enrichment for every sequence in the list that follows.
1. PIYEGYALPHA [ACTA1_Y171]
2. KANEYYPVVLI [ADAMTS18_Y765]

1. 2.11
2. 1.97

###

Exercise: state measured phosphorylation enrichment for each of the sequences provided.
Test system: c-Abl (mouse)
Test Description: phosphorylation enrichment, bacterial display (enrichment ratio); higher = better substrate or ligand; peptides without Tyr show the background
One number for each entry.

TLRKTYGEMAD [ALB_Y108_E106K]: 0.462

Please state phosphorylation enrichment for every sequence in the list that follows.
1. VTPVMYTYDEY [COL10A1_Y623_G618V]
2. GGRKGYGGFSR [RECQL5_Y478_D480G]
3. HEEKVYLSRGD [CRACR2A_Y141]
4. ERCAQYKKDGA [ALDOA_Y138]
5. VDSTEYEVASQ [SLC7A7_Y7]
6. PLDVEYFTLQI [TP53_Y327_G325V]
7. GRQGIYKENER [GPR143_Y231_T232K]
8. NKKHHYRELPV [ERN2_Y860]

[0.568, 0.506, 0.826, 0.496, 0.825, 1.11, 0.555, 2.31]

Please state phosphorylation enrichment for every sequence in the list that follows.
1. RHFSSYSQMEN [PKP1_Y120_R116H]
2. PLLEYYWDIFT [CDAN1_Y713_R714W]
3. HEKRAYICAHP [ACAD9_Y611_L606H]
4. KRISCYEARFQ [PFKFB3_Y194_S197R_YF]
5. SKDQICPMKLK [RANBP17_Y823_Y823C]
6. TFGNLYGSRKQ [YIPF7_Y59_A54T_YF]
7. FKDVTYLKEEK [UBE3A_Y127_T129K]
8. SLQSEYVHFGG [CDC14A_Y591_YF]

0.413
1.61
0.59
0.728
0.632
0.585
0.809
0.734

Please state phosphorylation enrichment for every sequence in the list that follows.
1. DEEEEYEYMNR [ERBB3_Y1197_D1194E]
2. KLPYLYDDPFS [GPX2_Y127_P126L]
3. GVRTIYTIDGS [DCLK2_Y124]
4. GTSLIYWILFT [G6PC3_Y214_T216I]

1. 0.631
2. 1.12
3. 0.5
4. 1.43

###

Assay Target: c-Src SH2
Test Description: SH2 binding enrichment of the phosphorylated peptide, bacterial display (enrichment ratio); higher = better substrate or ligand; peptides without Tyr show the background
Assign label 1 whenever SH2 binding enrichment does not fall below 0.6; assign label 0 whenever it does.

Reference set (3 entries):
FEGRSYSACTT [MMP9_Y241]: label 0
ATHRSYDSDNP [MMUT_Y146_G145S]: label 1
VDGFVYKLHPS [GCK_Y413_S411F]: label 0

Reported SH2 binding enrichment reaches at least 0.6 for CHSDDYVHISL [TSC1_Y406] ?
label 0

Reported SH2 binding enrichment reaches at least 0.6 for LFFFSYLLKNH [PTEN_Y180_V175L_YF] ?
label 1

Reported SH2 binding enrichment reaches at least 0.6 for RGDTVYTVNCM [KBTBD13_Y404_R408C] ?
label 0

Reported SH2 binding enrichment reaches at least 0.6 for PQEVTYAQLDH [KIR3DL2_Y398] ?
label 1

Reported SH2 binding enrichment reaches at least 0.6 for FSNVLYRPRGP [TMIGD2_Y197_A202P_YF] ?
label 0

Reported SH2 binding enrichment reaches at least 0.6 for AFDNLYYWDQD [ERBB2_Y1221] ?
label 0

Reported SH2 binding enrichment reaches at least 0.6 for LNLKDYNLVGG [GNAQ_Y356_E355D] ?
label 1

Reported SH2 binding enrichment reaches at least 0.6 for KTKLGYSPLHQ [ANK1_Y735] ?
label 1
